Reference source: patent US20250042994A1

Biological target: T1, Human CD19-his protein (human, UniProt P15391 20-291)
T1 construct: bought protein; also called human CD19 protein; recombinant human CD19-His; not shown: His tag
T1 sequence (looked up): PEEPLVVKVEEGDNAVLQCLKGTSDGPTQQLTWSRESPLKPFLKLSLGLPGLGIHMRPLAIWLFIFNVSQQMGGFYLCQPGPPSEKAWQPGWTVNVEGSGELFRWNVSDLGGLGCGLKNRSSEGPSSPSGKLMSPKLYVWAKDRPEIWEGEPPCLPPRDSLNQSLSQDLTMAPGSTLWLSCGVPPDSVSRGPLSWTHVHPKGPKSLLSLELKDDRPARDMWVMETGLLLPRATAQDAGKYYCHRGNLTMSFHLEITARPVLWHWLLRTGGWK
Experiment: ELISA, antibody at 0.10 nM
Form field: OD450 (one value per entry).
Lab note: jot down the number only; don't add units.

Known results for binders:
{"binder": "F4.35.5 (antibody, human IgG1, V domains shown, human-murine chimeric antibody, human IgG1) VH: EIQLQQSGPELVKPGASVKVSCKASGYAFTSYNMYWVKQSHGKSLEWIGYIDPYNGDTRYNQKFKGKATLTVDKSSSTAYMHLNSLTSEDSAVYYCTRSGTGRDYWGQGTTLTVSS VL: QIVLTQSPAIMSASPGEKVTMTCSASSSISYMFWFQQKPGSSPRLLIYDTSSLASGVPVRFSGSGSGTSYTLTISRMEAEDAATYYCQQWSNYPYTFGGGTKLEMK", "OD450": 0.25}
{"binder": "F4.58.6 (antibody, human IgG1, V domains shown, human-murine chimeric antibody, human IgG1) VH: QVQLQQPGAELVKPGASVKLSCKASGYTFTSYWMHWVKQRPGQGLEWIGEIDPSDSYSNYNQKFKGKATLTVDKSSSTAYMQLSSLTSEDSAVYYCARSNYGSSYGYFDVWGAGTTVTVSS VL: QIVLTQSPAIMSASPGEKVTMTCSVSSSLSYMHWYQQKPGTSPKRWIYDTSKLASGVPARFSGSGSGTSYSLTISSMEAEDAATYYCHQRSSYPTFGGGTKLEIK", "OD450": 0.3}
{"binder": "F4.125.12 (antibody, human IgG1, V domains shown, human-murine chimeric antibody, human IgG1) VH: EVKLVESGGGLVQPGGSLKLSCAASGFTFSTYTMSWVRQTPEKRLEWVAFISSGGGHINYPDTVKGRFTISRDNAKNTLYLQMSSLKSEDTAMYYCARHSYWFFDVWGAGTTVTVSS VL: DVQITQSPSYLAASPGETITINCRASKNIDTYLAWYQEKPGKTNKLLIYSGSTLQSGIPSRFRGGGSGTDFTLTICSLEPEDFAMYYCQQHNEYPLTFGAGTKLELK", "OD450": 1.07}
{"binder": "F4.145.9 (antibody, human IgG1, V domains shown, human-murine chimeric antibody, human IgG1) VH: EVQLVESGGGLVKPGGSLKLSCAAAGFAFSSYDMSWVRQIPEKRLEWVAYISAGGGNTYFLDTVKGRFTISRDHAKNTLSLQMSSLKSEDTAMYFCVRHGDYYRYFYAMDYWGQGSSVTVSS VL: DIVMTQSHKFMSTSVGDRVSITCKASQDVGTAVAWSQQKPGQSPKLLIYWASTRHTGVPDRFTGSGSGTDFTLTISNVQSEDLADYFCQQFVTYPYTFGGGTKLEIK", "OD450": 1.11}
{"binder": "F4.41.1 (antibody, human IgG1, V domains shown, human-murine chimeric antibody, human IgG1) VH: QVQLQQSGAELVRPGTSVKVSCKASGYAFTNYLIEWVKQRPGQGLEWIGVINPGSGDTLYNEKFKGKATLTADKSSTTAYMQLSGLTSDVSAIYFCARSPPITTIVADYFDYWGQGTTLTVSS VL: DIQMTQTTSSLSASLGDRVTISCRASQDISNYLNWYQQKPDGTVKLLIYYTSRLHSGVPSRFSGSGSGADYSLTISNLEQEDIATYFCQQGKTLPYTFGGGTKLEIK", "OD450": 0.16}
{"binder": "F3.40.14 (antibody, human IgG1, V domains shown, human-murine chimeric antibody, human IgG1) VH: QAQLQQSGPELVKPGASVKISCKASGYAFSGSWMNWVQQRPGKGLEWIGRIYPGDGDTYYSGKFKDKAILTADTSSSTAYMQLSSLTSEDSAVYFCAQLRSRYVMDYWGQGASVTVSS VL: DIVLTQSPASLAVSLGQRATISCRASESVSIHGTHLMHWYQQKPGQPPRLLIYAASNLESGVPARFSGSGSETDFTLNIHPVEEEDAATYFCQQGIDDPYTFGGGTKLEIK", "OD450": 0.11}

Need OD450, item F4.82.11 (antibody, human IgG1, V domains shown, human-murine chimeric antibody, human IgG1) VH: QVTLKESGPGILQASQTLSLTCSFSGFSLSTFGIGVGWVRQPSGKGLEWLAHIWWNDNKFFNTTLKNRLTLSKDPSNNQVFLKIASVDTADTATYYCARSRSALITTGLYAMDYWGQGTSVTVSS VL: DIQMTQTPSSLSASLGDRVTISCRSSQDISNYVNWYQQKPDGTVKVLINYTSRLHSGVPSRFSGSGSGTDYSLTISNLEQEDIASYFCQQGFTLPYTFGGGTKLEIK
0.85

Which OD450 value is on record for F3.13.2 (antibody, human IgG1, V domains shown, human-murine chimeric antibody, human IgG1) VH: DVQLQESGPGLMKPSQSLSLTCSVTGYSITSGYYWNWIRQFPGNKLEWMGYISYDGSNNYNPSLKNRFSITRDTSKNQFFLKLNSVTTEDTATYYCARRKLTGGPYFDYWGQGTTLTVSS VL: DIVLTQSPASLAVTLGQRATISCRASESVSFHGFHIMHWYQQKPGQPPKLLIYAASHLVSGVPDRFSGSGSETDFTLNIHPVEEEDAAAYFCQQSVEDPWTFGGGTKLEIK ?
0.06
